# Assay type: in vivo, human
# applied.conditions: human, plasma, po, 60 mg, AUC∞, single oral 60 mg, moderate renal impairment; adjusted geometric mean (%CV)
outcome.measure: AUC(0-inf) (µg·h/mL)
Quick note: give the figure in µg·h/mL, leave out the unit.

# AUC(0-inf) lookup, item `C[C@@H]1CCC[C@H](n2cnc(-c3cc(Cl)ccc3-n3cc(Cl)nn3)cc2=O)c2cc(ccn2)-c2c(cnn2C(F)F)NC1=O`
5.15

----------
# Format: in vivo, human
# applied.conditions: human, plasma, po, 60 mg, T½ (terminal plasma half-life), single oral 60 mg, severe renal impairment; mean (SD)
outcome.measure: half-life (h)
Field: numeric (h). Do not append units.

May I ask what half-life has been recorded for `C[C@@H]1CCC[C@H](n2cnc(-c3cc(Cl)ccc3-n3cc(Cl)nn3)cc2=O)c2cc(ccn2)-c2c(cnn2C(F)F)NC1=O` ?
17.7

----------
# Format: in vivo, human
# applied.conditions: human, plasma, po, 60 mg, AUC96, single oral 60 mg, moderate renal impairment; adjusted geometric mean (%CV)
outcome.measure: AUC (ng·h/mL)
Provide the reading as a plain figure in ng·h/mL.

Could you share which AUC value was measured for `C[C@@H]1CCC[C@H](n2cnc(-c3cc(Cl)ccc3-n3cc(Cl)nn3)cc2=O)c2cc(ccn2)-c2c(cnn2C(F)F)NC1=O` ?
5020

----------
# Type: in vivo, human
# applied.conditions: human, plasma, po, 60 mg, AUCt, single oral 60 mg, normal renal function; adjusted geometric mean (%CV)
outcome.measure: AUC(0-t) (ng·h/mL)
Could you give me the number in ng·h/mL? Just the number is fine.

Data request, read-out AUC(0-t), for C[C@@H]1CCC[C@H](n2cnc(-c3cc(Cl)ccc3-n3cc(Cl)nn3)cc2=O)c2cc(ccn2)-c2c(cnn2C(F)F)NC1=O [milvexian, Milvexian]
3860

----------
# assay.overview: Milvexian plasma protein binding by LC-MS/MS
# Assay type: in vitro ADME, human
# applied.conditions: human, plasma, %fu (fraction of unbound drug), normal renal function; adjusted geometric mean (%CV)
outcome.measure: fraction unbound
// return just the number, without any unit appended

If you can, please state the reported fraction unbound value of `C[C@@H]1CCC[C@H](n2cnc(-c3cc(Cl)ccc3-n3cc(Cl)nn3)cc2=O)c2cc(ccn2)-c2c(cnn2C(F)F)NC1=O` .
0.0885

----------
# Assay type: in vivo, human
# applied.conditions: human, plasma, po, 60 mg, T½ (terminal plasma half-life), single oral 60 mg, moderate renal impairment; mean (SD)
outcome.measure: half-life (h)
Field: numeric (h). Do not append units.

Value lookup for half-life; key = `C[C@@H]1CCC[C@H](n2cnc(-c3cc(Cl)ccc3-n3cc(Cl)nn3)cc2=O)c2cc(ccn2)-c2c(cnn2C(F)F)NC1=O`
18

----------
# Format: in vivo, human
# applied.conditions: human, plasma, po, 60 mg, AUC∞, single oral 60 mg, severe renal impairment; adjusted geometric mean (%CV)
outcome.measure: AUC(0-inf)

Which value of AUC(0-inf) has been reported for C[C@@H]1CCC[C@H](n2cnc(-c3cc(Cl)ccc3-n3cc(Cl)nn3)cc2=O)c2cc(ccn2)-c2c(cnn2C(F)F)NC1=O [milvexian, Milvexian] in the records?
7410 ng·h/mL

----------
# Assay type: in vivo, human
# applied.conditions: human, plasma, po, 60 mg, AUC∞, single oral 60 mg, normal renal function; adjusted geometric mean (%CV)
outcome.measure: AUC(0-inf)

Would you kindly share the measured AUC(0-inf) for `C[C@@H]1CCC[C@H](n2cnc(-c3cc(Cl)ccc3-n3cc(Cl)nn3)cc2=O)c2cc(ccn2)-c2c(cnn2C(F)F)NC1=O` ?
3920 ng·h/mL

Where do these numbers come from? They come from paper PMC9553801.
